- Test system: Bovine brain tubulin (vinca domain)
- Assay info: Inhibition of [3H]vinblastine binding to tubulin
- Experimental setup: 10 μM inhibitor; 5.0 μM tubulin, 5 μM [3H]vinblastine
- Description: Bovine brain tubulin was prepared and the tubulin assembly and colchicine binding assays were performed as described previously. In the assembly assay, reaction mixtures contained 1.0 mg/mL (10 μM) tubulin and varying concentrations of potential inhibitors. In the colchicine binding assay reaction mixtures contained 0.1 mg/mL (1.0 μM) tubulin, 5.0 μM [^3H]colchicine, and potential inhibitor as indicated. […]
Measured Inhibition of vinblastine binding % Inhibition ± SD accompanies every entry in the list below.
Measured attribute: Inhibition of vinblastine binding % Inhibition ± SD (%)

[
  {
    "Chemical string": "CC[C@H](C)[C@@H]([C@@H](CC(=O)N1CCC[C@H]1[C@H](OC)[C@@H](C)C(=O)O)OC)N(C)C(=O)[C@@H](NC(=O)[C@H](C(C)C)N(C)C)C(C)C",
    "Assay result": 16
  },
  {
    "Chemical string": "COc1ccc(C=Cc2cc(OC)c(OC)c(OC)c2)cc1O",
    "Assay result": 0
  },
  {
    "Chemical string": "COc1ccc(C=Cc2cc(OC)c3c(c2)OCO3)cc1N",
    "Assay result": 0
  },
  {
    "Chemical string": "CC[C@H](C)[C@@H]([C@@H](CC(=O)N1CCC[C@H]1[C@H](OC)[C@@H](C)C(=O)Nc1cc(/C=C\\c2cc(OC)c3c(c2)OCO3)ccc1OC)OC)N(C)C(=O)[C@@H](NC(=O)[C@H](C(C)C)N(C)C)C(C)C",
    "Assay result": 48
  },
  {
    "Chemical string": "CC[C@H](C)[C@@H]([C@@H](CC(=O)N1CCC[C@H]1[C@H](OC)[C@@H](C)C(=O)N[C@@H](Cc1ccccc1)c1nccs1)OC)N(C)C(=O)[C@@H](NC(=O)[C@H](C(C)C)N(C)C)C(C)C",
    "Assay result": 96
  }
]

----------
- Tested on: MCF-7
- Assay info: cells
- Type: cell-based, human
- Experimental setup: MCF-7
Reported values of Breast MCF-7 GI50 for individual entries
Measured attribute: Breast MCF-7 GI50 (µg/mL)

[
  {
    "Compound": "COc1ccc(/C=C\\c2cc(OC)c3c(c2)OCO3)cc1NC(=O)[C@@H](N)Cc1ccc(OP(=O)(O)O)cc1 [Compound 3a]",
    "Tested system": "MCF-7",
    "Unit tag": "µg/mL",
    "Result comparator": ">",
    "Assay result": 1
  },
  {
    "Compound": "CC[C@H](C)[C@@H]([C@@H](CC(=O)N1CCC[C@H]1[C@H](OC)[C@@H](C)C(=O)Nc1cc(/C=C\\c2cc(OC)c3c(c2)OCO3)ccc1OC)OC)N(C)C(=O)[C@@H](NC(=O)[C@H](C(C)C)N(C)C)C(C)C [Compound 16]",
    "Tested system": "MCF-7",
    "Unit tag": "µg/mL",
    "Result comparator": "=",
    "Assay result": 0.0031
  },
  {
    "Compound": "COc1ccc(/C=C\\c2cc(OC)c3c(c2)OCO3)cc1NC(=O)[C@H](Cc1ccc(OC(C)(C)C)cc1)NC(=O)OCc1ccccc1 [Compound 7]",
    "Tested system": "MCF-7",
    "Unit tag": "µg/mL",
    "Result comparator": "=",
    "Assay result": 0.36
  },
  {
    "Compound": "COc1ccc(/C=C\\c2cc(OC)c3c(c2)OCO3)cc1NC(=O)[C@H](Cc1ccc(OP(=O)(OCc2ccccc2)OCc2ccccc2)cc1)NC(=O)OCc1ccccc1 [Compound 8]",
    "Tested system": "MCF-7",
    "Unit tag": "µg/mL",
    "Result comparator": ">",
    "Assay result": 10
  }
]

Source: patent US20090221666A1
